biological target: ZACN (Homo sapiens, UniProt Q401N2); test: Two-electrode voltage-clamp, ZACN expressed in Xenopus laevis oocytes: inhibition or modulation of spontaneous, zinc-activated and suramin-activated current; type: cell-based; set-up: host or cells: Xenopus laevis oocytes injected with cRNA (pGEMHE vector, T7 transcript)
Sequence (Q401N2 26-412): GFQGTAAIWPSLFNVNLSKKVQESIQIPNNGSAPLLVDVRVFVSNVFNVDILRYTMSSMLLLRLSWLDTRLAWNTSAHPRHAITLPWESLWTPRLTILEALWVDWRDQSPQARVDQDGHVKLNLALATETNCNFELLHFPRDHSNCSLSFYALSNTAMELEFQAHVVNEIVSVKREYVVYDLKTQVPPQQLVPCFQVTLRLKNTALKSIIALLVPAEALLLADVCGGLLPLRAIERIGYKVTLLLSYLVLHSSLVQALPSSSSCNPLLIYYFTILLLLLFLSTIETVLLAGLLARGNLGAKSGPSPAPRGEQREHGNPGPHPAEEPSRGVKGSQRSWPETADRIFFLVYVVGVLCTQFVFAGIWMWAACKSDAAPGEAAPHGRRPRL
Result Type: antagonist activity on human ZACN

Worked examples follow.
Compound | antagonist activity on human ZACN
CN1CCN2c3ccccc3Cc3ccccc3C2C1 (centres unmarked) [mianserin] | acted as antagonists
CN(C)CCC=C1c2ccccc2COc2ccccc21 [doxepin] | acted as antagonists
CNCC[C@@H](Oc1ccccc1C)c1ccccc1 [tomoxetine] | acted as antagonists
COc1ccc(C(CN(C)C)C2(O)CCCCC2)cc1 (centres unmarked) [venlafaxine] | acted as antagonists
CN(C)c1ccc2nc3ccc(=[N+](C)C)cc-3sc2c1 [methylene blue] | antagonists
CNCCC(Oc1ccc(C(F)(F)F)cc1)c1ccccc1 (centres unmarked) [fluoxetine] | acted as antagonists
Cc1cc2nc3ccc(N(C)C)cc3nc2cc1N.Cl [neutral red] | antagonists
CNCCCN1c2ccccc2CCc2ccccc21 [desipramine] | acted as antagonists
CCOc1ccccc1OC(c1ccccc1)C1CNCCO1 (centres unmarked) [reboxetine] | acted as antagonists

Now consider a different compound.
Entry Cc1cc2nc3ccc(N(C)C)cc3[s+]c2cc1N.[Cl-] [toluidine blue] , antagonist activity on human ZACN reported as antagonists
